# EXPERIMENT: chemical genetic growth profiling, strain panel (AID 1159580);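 note: tested at 20 µM; growth read once vehicle control cultures reached saturation at 30 °C; 1 = growth at the plate median or of vehicle wells; lower values mean less growth of the strain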
# EXPERIMENTAL CONDITIONS: S. cerevisiae deletion strains, growth OD, locus YLR085C, strain ARP6, active compounds read low
The whole screen tested about 5,500 compounds, of which about 2,000 (36%) were called active. Roughly 18% stayed inconclusive and do not appear here. The list shows a part of the results.
Consider the following compounds and their measured normalized growth readings.

Reference set (2 entries):
Cc1ccc(NC(=S)NNC(C)(C)C)cc1; 0.488 (active)
COC(=O)c1sccc1OC(=O)c1c(F)cccc1F; 0.891 (inactive)

Turning now to a further record.
# lookup: normalized growth of "Cc1cccc(Cn2c(C)c(C)c(S(=O)(=O)c3ccccc3)c2N)c1C" 1.24 [resistant] (active)

====

# EXPERIMENT: chemical genetic growth profiling, strain panel (AID 1159580);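 note: tested at 20 µM; growth read once vehicle control cultures reached saturation at 30 °C; 1 = growth at the plate median or of vehicle wells; lower values mean less growth of the strain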
# EXPERIMENTAL CONDITIONS: S. cerevisiae deletion strains, growth OD, locus YLL001W, strain dnm1, active compounds read low
In all, about 5,500 compounds went through this assay and about 2,000 (36%) were called active. Another 18% or so got no clear call; they are omitted. Some of the results follow.
QUANTITY KIND: normalized growth
Please state the value as a number alone, without comment.

Example entries and their recorded answers appear below.
NCCSSCCN; 0.978
COc1cc2c(cc1OC)[C@@H]1C(=O)c3ccc(OC)c(CC=C(C)C)c3O[C@@H]1CO2; 1.03
CC1CC2C3CCC4=CC(=O)C=C[C@]4(C)[C@@]3(F)[C@@H](O)C[C@]2(C)[C@@]1(O)C(=O)CO (some centres undefined); 1.01

Item under review: "CCOC(=O)c1c(C)c(Cl)c(O)c(Cl)c1O" . Reported normalized growth? 0.563

Also, COc1cc(NC(C)CCCN)c2ncccc2c1 (centres undefined) please. 0.965

Now try "COc1cc2c(cc1OC)C(=O)OC2" . 0.996

Check C=C(C)C1CNC(C(=O)O)C1CC(=O)O (centres undefined) too. 0.994

Now this one: CCOC(=O)C(Cc1ccc(O)cc1)NC(C)=O (centres undefined) 1.01

Cool, now ClC1=C(Cl)C2(Cl)C3C(Cl)C=CC3C1(Cl)C2(Cl)Cl (centres undefined) 1

Same question for CC1=C(/C=C/C(C)=C/C=C/C(C)=C/C=C/C=C(C)/C=C/C=C(C)/C=C/C2=C(C)C(=O)C(O)CC2(C)C)C(C)(C)CC(O)C1=O (centres undefined) please. 1.05

====

# EXPERIMENT: chemical genetic growth profiling, strain panel (AID 1159580);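 note: tested at 20 µM; growth read once vehicle control cultures reached saturation at 30 °C; 1 = growth at the plate median or of vehicle wells; lower values mean less growth of the strain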
# EXPERIMENTAL CONDITIONS: S. cerevisiae deletion strains, growth OD, locus YER167W, strain BCK2, active compounds read low
Out of some 5,500 compounds screened, about 2,000 (36%) were called active. Not shown: some 18% with an inconclusive outcome. This is one part of the list.
QUANTITY KIND: normalized growth
Please reply with the number alone, leaving off any unit.

ClC1=C(Cl)C2(Cl)C3C(Cl)C=CC3C1(Cl)C2(Cl)Cl (configuration not stated); 0.98
NCC1CCC(C(=O)O)CC1 (configuration not stated); 0.997
CC(=O)NC1SCCC1=O (configuration not stated); 1.02
COc1cc2c(cc1OC)C1C(=O)c3c(O)cc4c(c3OC1CO2)C=CC(C)(C)O4 (configuration not stated); 1
CC(C(=O)O)c1ccc(-c2ccccc2)c(F)c1 (configuration not stated); 0.974
COc1cc2c(cc1OC)C1C(=O)c3c(cc4c(c3O)C=CC(C)(C)O4)OC1CO2 (configuration not stated); 1.01

Which normalized growth value is on record for "COc1ccc2cc([C@H](C)C(=O)O)ccc2c1" ? 0.986

"O=C(O)c1c2ccccc2cc2ccccc12" ? 1.02
